- run_description: metabolic stability assay using liver microsomes
- Format: in vitro ADME
- details: human liver microsomes 0.4 mg/ml, 1 μM, NRS, 37° C.
Measured Human Liver Microsomes % remaining @30 min of individual entries
quantity_name: Human Liver Microsomes % remaining @30 min (%)

1) CC[C@H](C)[C@@H](C(=O)N[C@H]1CCc2cccc3c2N(C1=O)[C@H](C(=O)NCc1c[nH]nn1)C3)N(CCC(=O)O)C(=O)COCCF (single isomer, unassigned) [Compound C230] : 98.2
2) CC[C@H](C)[C@@H](C(=O)N[C@H]1CCc2cccc3c2N(C1=O)[C@H](C(=O)NCc1c[nH]nn1)C3)N(C)C(=O)COCCF (single isomer, unassigned) [Compound C155] : 66.3
3) CC[C@H](C)[C@@H](C(=O)N[C@H]1CCc2cccc3c2N(C1=O)[C@H](C(=O)NCc1c[nH]nn1)C3)N(C)C(=O)CC(=O)NC (single isomer, unassigned) [Compound C192] : 72.8
